Molecular target: GPR73 (prokineticin 1 receptor) (Homo sapiens)
Construct: expressed in transfected cells; host or cells: HEK 293
Sequence (Q8TCW9 whole entry, species assumed): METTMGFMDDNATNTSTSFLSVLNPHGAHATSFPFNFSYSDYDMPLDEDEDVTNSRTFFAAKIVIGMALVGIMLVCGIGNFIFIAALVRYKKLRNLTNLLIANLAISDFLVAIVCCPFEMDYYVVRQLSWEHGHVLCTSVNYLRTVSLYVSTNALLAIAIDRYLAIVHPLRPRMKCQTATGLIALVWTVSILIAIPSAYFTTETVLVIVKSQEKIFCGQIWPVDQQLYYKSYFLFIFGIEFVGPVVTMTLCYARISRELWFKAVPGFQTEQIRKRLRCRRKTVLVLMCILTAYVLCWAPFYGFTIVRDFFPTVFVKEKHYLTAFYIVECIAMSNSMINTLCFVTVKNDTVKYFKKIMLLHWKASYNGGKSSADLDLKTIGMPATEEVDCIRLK
Experiment: PK1 functional assay: Ca2+ mobilization screening for PK1 antagonists on the FLIPR
Assay type: cell-based
Conditions: HEK293, 10 μM compound; HEK 293 GPR73 cells; multiple values = multiple testing; read-out: Ca^2+ Mobilization % Inh @ 10 μM
Protocol: At a time of 24 h prior to running the assay, in cell culture media (DMEM containing high Glucose and L-glutamine, 10% FBS, 1% Pen/Streptomycin, 1% Sodium Pyruvate, 20 mM HEPES, Zeocin 200 mg/L), 100 μL of 1.3*10^6/ml HEK 293 GPR73 (prokineticin 1 receptor) expressing cells were plated in a 96 well poly-d-lysine coated plate (Costar), and incubated at 37 C and 5% CO2. […] Baseline is described as the amount of relative fluorescence read when buffer alone is added to cells. […]
// Not met strictly below 80% in inhibition at 10 µM; Met otherwise

compound: COc1ccc(Cn2c(NCCc3ccccn3)nc(=O)n(Cc3ccc(Cl)c(Cl)c3)c2=O)cc1 [Cpd 1]
group.label: Not met
--
compound: COc1ccc(Cn2c(=O)nc(NCc3cccnc3N)n(Cc3cccc([N+](=O)[O-])c3)c2=O)cc1 [Cpd 82]
group.label: Not met
--
compound: COc1ccc(Cn2c(=O)nc(NCc3cnc(C)cc3C)n(Cc3ccc(OC)cc3F)c2=O)cc1 [Cpd 206]
group.label: Met
--
compound: COc1ccc(Cn2c(NC(C)c3ccccn3)nc(=O)n(Cc3ccc(OC)cc3)c2=O)cc1 (stereo not shown) [Cpd 234]
group.label: Not met
--
compound: Cc1cc(C)c(CNc2nc(=O)n(Cc3ccc4snnc4c3)c(=O)n2Cc2ccc(OC(F)F)cc2)cn1 [Cpd 196]
group.label: Met
--
compound: COc1ccc(Cn2c(NCc3ccccn3)nc(=O)n(Cc3ccc(OC)cc3)c2=O)cc1 [Cpd 39]
group.label: Met
--
compound: COc1ccc(Cn2c(NCc3cccnc3N)nc(=O)n(Cc3cccc(F)c3)c2=O)cc1 [Cpd 55]
group.label: Not met
--
compound: COc1ccc(Cn2c(CCc3ccncc3)cc(=O)n(Cc3ccc(OC)cc3)c2=O)cc1 [Cpd 183]
group.label: Not met
--
compound: COc1ccc(Cn2c(NCc3cccnc3NCCSC)nc(=O)n(Cc3ccc(OC)cc3)c2=O)cc1 [Cpd 66]
group.label: Met
--
compound: CCCNc1ncccc1CNc1nc(=O)n(Cc2ccc(OC)cc2)c(=O)n1Cc1ccc(OC)cc1 [Cpd 34]
group.label: Met
--
compound: Cc1cc(C)c(CNc2nc(=O)n(Cc3ccc4snnc4c3)c(=O)n2Cc2ccc3c(c2)CCO3)cn1 [Cpd 243]
group.label: Not met
--
compound: COc1ccc(Cn2c(=O)nc(NCc3c(C)cc(C)nc3N)n(Cc3ccc4c(c3)CCO4)c2=O)cc1 [Cpd 157]
group.label: Met
--
compound: COc1ccc(Cn2c(=O)nc(NCc3cccnc3N)n(Cc3ccc(OC)cc3OC)c2=O)cc1 [Cpd 200]
group.label: Met
--
compound: COc1ccc(Cn2c(=O)nc(NCc3cccnc3N)n(Cc3ccc(OC(F)(F)F)cc3)c2=O)cc1 [Cpd 38]
group.label: Met

====

target: GPR73 (prokineticin 1 receptor) (Homo sapiens); assay: PK1 functional assay: Ca2+ mobilization screening for PK1 antagonists on the FLIPR; conditions: HEK 293 GPR73 cells; PK1 ligand preparation at its EC50; multiple values = multiple testing; read-out: Ca^2+ Mobilization IC50
pIC50: −log10 of the molar value.

compound: COc1ccc(Cn2c(=O)nc(NCc3cccnc3N)n(Cc3cc4ccccc4o3)c2=O)cc1 [Cpd 77]
system.under.test: GPR73 (prokineticin 1 receptor) (Homo sapiens)
inequality.sign: =
pIC50: 6.35
--
compound: COc1ccc(Cn2c(=O)nc(NCc3cnc(C)cc3C)n(Cc3ccc(OC(F)F)cc3)c2=O)cc1 [Cpd 193]
system.under.test: GPR73 (prokineticin 1 receptor) (Homo sapiens)
inequality.sign: <
pIC50: 5.00
--
compound: Cc1cc(C)c(CNc2nc(=O)n(Cc3ccc(O)cc3)c(=O)n2Cc2ccc(OC(F)F)cc2)cn1 [Cpd 181]
system.under.test: GPR73 (prokineticin 1 receptor) (Homo sapiens)
inequality.sign: =
pIC50: 5.43
--
compound: COc1ccc(Cn2c(NCc3ccc(N)nc3)nc(=O)n(Cc3ccc(Cl)cc3)c2=O)cc1 [Cpd 5]
system.under.test: GPR73 (prokineticin 1 receptor) (Homo sapiens)
inequality.sign: =
pIC50: 5.95

From: patent US20080287445A1
